pKi: −log10 of the molar value.
Literature compilation of pKi measurements on Alpha-1A adrenergic receptor (Homo sapiens, UniProt P35348).
test-readout: pKi

# molecule, target-or-system, pKi
data = [
    ("CC(C)Oc1ccccc1N1CCN(C2CCC(N3C(=O)c4cccnc4C3=O)CC2)CC1 (mixture of isomers)", "Alpha-1A adrenergic receptor (Homo sapiens, UniProt P35348)", 9.12),
    ("CC(C)Oc1ccccc1N1CCN([C@H]2CC[C@H](NC(=O)Nc3c(F)cccc3F)CC2)CC1", "Alpha-1A adrenergic receptor (Homo sapiens, UniProt P35348)", 8.28),
    ("COc1ccccc1NC(=O)N[C@H]1CC[C@H](N2CCN(c3ccccc3OC(C)C)CC2)CC1", "Alpha-1A adrenergic receptor (Homo sapiens, UniProt P35348)", 7.42),
    ("COc1ccc(S(=O)(=O)N[C@H]2CC[C@H](N3CCN(c4ccc(F)cc4OC(C)C)CC3)CC2)cc1OC", "Alpha-1A adrenergic receptor (Homo sapiens, UniProt P35348)", 8.05),
]

A = CC(C)Oc1ccccc1N1CCN([C@H]2CC[C@H](NS(=O)(=O)Cc3ccccc3)CC2)CC1
B = CC(C)Oc1ccccc1N1CCN([C@H]2CC[C@H](NS(=O)(=O)c3ccc(OC(F)(F)F)cc3)CC2)CC1
Exercise: Parameter check: reported pKi is higher for which label, A or B ? Your answer should be the label attached to the chosen record.
Solution: A
(A: 8.41, B: 7.00)

a = CC(C)Oc1ccccc1N1CCN([C@H]2CC[C@H](NS(=O)(=O)c3ccccc3[N+](=O)[O-])CC2)CC1
b = CC(C)C(=O)Nc1cccc(C2CCN(CCC(OC(=O)c3cccc4ccccc34)c3ccccc3)CC2)c1 (stereo in doubt)
Exercise: Parameter check: reported pKi is higher for which label, a or b ? Your answer should be the label attached to the chosen record.
Solution: a
(a: 9.00, b: 6.63)

P = CC(C)Oc1ccccc1N1CCN([C@H]2CC[C@H](NC(=O)Nc3ccc(OC(F)(F)F)cc3)CC2)CC1
Q = COc1ccc(NC(=O)N[C@H]2CC[C@@H](N3CCN(c4ccccc4OC(C)C)CC3)CC2)c(OC)c1
R = COc1ccc([N+](=O)[O-])cc1S(=O)(=O)N[C@H]1CC[C@@H](N2CCN(c3ccccc3OC(C)C)CC2)CC1
S = CC(C)Oc1ccccc1N1CCN([C@H]2CC[C@H](NS(=O)(=O)c3cc(Cl)ccc3F)CC2)CC1
Exercise: Rank descending by pKi. Labels, requested order.
Solution: R, S, Q, P
(R: 8.37, S: 8.05, Q: 6.96, P: 6.74)

----------
Literature compilation of pKi measurements on Alpha-1A adrenergic receptor (Homo sapiens, UniProt P35348).
pKi: −log10 of the molar value.
test-readout: pKi

The cases that follow already have their pKi on record.
# smiles-representation, pKi
rows = [
    ("COc1ccc(Cl)cc1S(=O)(=O)N[C@H]1CC[C@@H](N2CCN(c3ncccc3OC(C)C)CC2)CC1", 7.97),
    ("COc1ccc(F)cc1S(=O)(=O)N[C@H]1CC[C@@H](N2CCN(c3ccccc3OC(C)C)CC2)CC1", 8.22),
    ("CC(C)Oc1ccccc1N1CCN([C@H]2CC[C@@H](NS(=O)(=O)c3ccccc3)CC2)CC1", 7.86),
    ("COc1ccc(NC(=O)N[C@H]2CC[C@H](N3CCN(c4ccccc4OC(C)C)CC3)CC2)cc1Cl", 7.89),
    ("CC(C)Oc1ccccc1N1CCN([C@H]2CC[C@H](NS(=O)(=O)c3cccnc3)CC2)CC1", 8.24),
]

A = CC(C)Oc1ccccc1N1CCN([C@H]2CC[C@H](NC(=O)Nc3c(Cl)cccc3Cl)CC2)CC1
B = COc1ccc(Cl)cc1NC(=O)N[C@H]1CC[C@H](N2CCN(c3ccccc3OC(C)C)CC2)CC1
Exercise: Please let me know which one, A or B , has a lower measured pKi value. Your answer should be the label attached to the chosen record.
Solution: B
(B: 7.47, A: 8.21)
